measurement_target: recombinant EphB4 (Homo sapiens)
Construct: amino acids 563-987; Swiss-Prot Acc; No. P54760; purchased ProQinase GmbH 0178-0000-3
protocol_details: In vitro EphB4 enzyme assay (Alphascreen, phosphorylation of biotin-poly-GAT)
Assay type: biochemical
stated_conditions: method of compound preparation not stated; read-out: IC50 in assay A
property_name: pIC50
# pIC50 = -log10(concentration in molar units)

Sure, the documented pIC50 for c1cc(Nc2ccnc(Nc3cc(N4CCOCC4)nc(N4CCOCC4)c3)n2)c2cn[nH]c2c1 [Example 3] is 6.61

###

measurement_target: recombinant EphB4 (Homo sapiens, UniProt P54760)
Construct: amino acids 563-987; Swiss-Prot Acc; No. P54760; purchased ProQinase GmbH 0178-0000-3
Sequence (P54760 563-987): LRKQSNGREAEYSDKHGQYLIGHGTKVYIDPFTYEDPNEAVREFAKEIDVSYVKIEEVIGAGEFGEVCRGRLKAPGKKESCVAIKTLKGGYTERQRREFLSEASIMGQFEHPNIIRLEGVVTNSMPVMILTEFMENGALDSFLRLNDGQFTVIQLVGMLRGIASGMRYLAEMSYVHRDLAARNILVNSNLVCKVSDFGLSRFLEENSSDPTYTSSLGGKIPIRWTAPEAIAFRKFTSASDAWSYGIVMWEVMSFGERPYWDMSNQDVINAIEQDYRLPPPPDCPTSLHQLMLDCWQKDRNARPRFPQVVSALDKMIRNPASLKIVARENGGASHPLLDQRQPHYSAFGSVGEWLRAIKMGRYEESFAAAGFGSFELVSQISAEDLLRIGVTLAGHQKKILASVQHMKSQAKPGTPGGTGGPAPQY
protocol_details: In vitro EphB4 enzyme assay (Alphascreen, phosphorylation of biotin-poly-GAT)
Assay type: biochemical
stated_conditions: Method of compound preparation: Genesis (aqueous compound preparation); * = tested once only; read-out: EphB4 enzyme assay Mean IC50 value
pIC50: −log10 of the molar value.
// label = YES if pIC50 is not less than 6, otherwise NO

Illustrative cases are given below, each with its answer.
molecule="Cc1nc(Nc2nccc(Nc3c(Cl)ccc4c3OCO4)n2)cc(N2CCN(C)CC2)n1 [Example 12]" measurement_target="recombinant EphB4 (Homo sapiens, UniProt P54760)" category_label=NO
molecule="CN(c1ccnc(Nc2ccnc(N3CCOCC3)c2)n1)c1cccc2[nH]ncc12 [Example 4]" measurement_target="recombinant EphB4 (Homo sapiens, UniProt P54760)" category_label=YES

Kindly review the next molecule as well.
Request: Check the entry Clc1ccc2c(c1Nc1ccnc(Nc3cc(N4CCOCC4)ccn3)n1)OCO2 [Example 9] : does pIC50 equal or exceed 6?
Result: YES

###

measurement_target: EphB4 (Homo sapiens, UniProt P54760)
Construct: to generate full-length EphB4 containing a Myc-His tag at the C-terminus; EphB4-CHO)
Sequence (P54760 16-987): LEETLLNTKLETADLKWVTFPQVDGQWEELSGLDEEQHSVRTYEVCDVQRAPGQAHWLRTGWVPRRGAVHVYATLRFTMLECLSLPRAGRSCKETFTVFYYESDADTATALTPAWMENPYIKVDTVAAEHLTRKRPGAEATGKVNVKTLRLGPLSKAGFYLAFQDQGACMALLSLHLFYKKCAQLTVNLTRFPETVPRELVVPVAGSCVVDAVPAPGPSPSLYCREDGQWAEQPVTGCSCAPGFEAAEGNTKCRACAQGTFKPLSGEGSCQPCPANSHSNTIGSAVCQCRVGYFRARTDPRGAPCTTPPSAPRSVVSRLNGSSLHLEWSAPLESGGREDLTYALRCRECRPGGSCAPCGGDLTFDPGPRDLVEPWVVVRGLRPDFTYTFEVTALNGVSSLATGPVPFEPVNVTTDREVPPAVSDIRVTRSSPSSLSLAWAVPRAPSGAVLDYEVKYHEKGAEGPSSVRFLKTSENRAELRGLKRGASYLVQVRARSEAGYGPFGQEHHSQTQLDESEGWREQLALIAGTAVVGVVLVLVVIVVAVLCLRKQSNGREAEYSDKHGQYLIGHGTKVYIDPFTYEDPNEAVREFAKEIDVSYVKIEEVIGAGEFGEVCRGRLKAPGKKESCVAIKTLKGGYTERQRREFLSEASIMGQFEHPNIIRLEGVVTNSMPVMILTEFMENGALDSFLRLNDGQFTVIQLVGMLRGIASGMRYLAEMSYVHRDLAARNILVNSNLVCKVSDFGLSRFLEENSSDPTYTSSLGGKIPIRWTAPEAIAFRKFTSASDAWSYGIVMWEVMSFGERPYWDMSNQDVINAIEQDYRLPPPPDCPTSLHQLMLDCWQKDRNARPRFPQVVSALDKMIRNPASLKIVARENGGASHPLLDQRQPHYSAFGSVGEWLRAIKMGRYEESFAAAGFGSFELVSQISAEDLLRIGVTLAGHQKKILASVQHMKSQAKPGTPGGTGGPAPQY
protocol_details: In vitro EphB4 cell assay (EphB4 phosphorylation in EphB4-CHO cells, sandwich ELISA)
stated_conditions: stimulated with clustered ephrin-B2, read-out: IC50 in assay B
property_name: IC50 (nM)
Form entry: value (nM) — number only.

Sure, the documented IC50 for c1cc(Nc2ccnc(Nc3cc(N4CCOCC4)nc(N4CCOCC4)c3)n2)c2cn[nH]c2c1 is 26

###

compounds and their reported pIC50
measurement_target: recombinant EphA2 (Homo sapiens, UniProt P29317)
Construct: amino acids 591-976; Swiss-Prot Acc; No. P29317
Sequence (P29317 591-976): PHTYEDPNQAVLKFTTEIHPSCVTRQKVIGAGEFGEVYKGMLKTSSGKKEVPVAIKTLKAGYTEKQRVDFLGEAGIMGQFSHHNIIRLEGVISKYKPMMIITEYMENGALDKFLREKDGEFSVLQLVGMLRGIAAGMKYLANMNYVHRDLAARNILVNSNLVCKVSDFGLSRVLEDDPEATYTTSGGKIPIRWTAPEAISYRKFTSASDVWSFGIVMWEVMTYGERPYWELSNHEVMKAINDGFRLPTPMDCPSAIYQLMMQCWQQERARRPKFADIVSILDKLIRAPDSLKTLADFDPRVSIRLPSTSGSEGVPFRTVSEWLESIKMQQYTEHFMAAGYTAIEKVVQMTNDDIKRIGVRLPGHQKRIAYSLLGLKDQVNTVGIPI
protocol_details: In vitro EphA2 enzyme assay (Alphascreen, phosphorylation of biotin-poly-GAT)
# pIC50 = -log10(concentration in molar units)

test_smiles=Clc1ccc2c(c1Nc1ccnc(Nc3cc(N4CCOCC4)ccn3)n1)OCO2 measurement_target="recombinant EphA2 (Homo sapiens, UniProt P29317)" meas_value=6.88

We next turn to a different compound, shown below.
Sure, the documented pIC50 for Clc1ccc2c(c1Nc1ccnc(Nc3cccc(N4CCOCC4)n3)n1)OCO2 is 6.25

###

measurement_target: recombinant EphB4 (Homo sapiens, UniProt P54760)
Construct: amino acids 563-987; Swiss-Prot Acc; No. P54760; purchased ProQinase GmbH 0178-0000-3
protocol_details: In vitro EphB4 enzyme assay (Alphascreen, phosphorylation of biotin-poly-GAT)
Format: biochemical
stated_conditions: Method of compound preparation: Echo (acoustic dispensing); * = tested once only; read-out: EphB4 enzyme assay Mean IC50 value
molecules and their reported pIC50
# pIC50 = -log10(concentration in molar units)

Consider the reported pIC50 for these molecules:
test_smiles=Clc1ccc2c(c1Nc1ccnc(Nc3cc(N4CCOCC4)ccn3)n1)OCO2 property_name=pIC50 meas_value=7.28
test_smiles=CN(c1ccnc(Nc2ccnc(N3CCOCC3)c2)n1)c1cccc2[nH]ncc12 property_name=pIC50 meas_value=8.52
test_smiles=CN(c1ccnc(Nc2cc(Cl)cc(N3CCOCC3)n2)n1)c1cccc2[nH]ncc12 property_name=pIC50 meas_value=8.15

Sure, the documented pIC50 for Clc1ccc2c(c1Nc1ccnc(Nc3cccc(N4CCOCC4)n3)n1)OCO2 is 7.19

Sure, the documented pIC50 for CN(c1ccnc(Nc2cc(Cl)nc(N3CCOCC3)c2)n1)c1cccc2[nH]ncc12 is 8.40
